# EC50 listing for each entry below
- subjectOfTest: SARS-CoV-2-N protein (SARS-CoV-2, UniProt P0DTC9 1-419)
Answer with a number only, understood to be in µg/mL.

antibody #48 (antibody, V domains shown, also called C48) VH: EVQLVESGGGLVQPGGSLRLSCAASGFTISNFGIHWVRQAPGKGLEWVAGIWPYGGYTFYADSVKGRFTISADTSKNTAYLQMNSLRAEDTAVYYCARFDSYSYSGYMDYWGQGTLVTVSS VL: DIQMTQSPSSLSASVGDRVTITCSGSSSNIGDNNVYWYQQKPGKAPKLLIFGPAYLYSGVPSRFSGSGSGTDFTLTISSLQPEDFATYYCAAGYSDNNGITFGQGTKVEIKR :: 0.0207
antibody #36 (antibody, V domains shown, also called IgG1#36; D36) VH: EVQLVESGGGLVQPGGSLRLSCAASGFTINRYSIHWVRQAPGKGLEWVAGIWPFGGDTTYADSVKGRFTISADTSKNTAYLQMNSLRAEDTAVYYCARGATSHDYWGQGTLVTVSS VL: DIQMTQSPSSLSASVGDRVTITCRASQDVTTTVAWYQQKPGKAPKLLINKGSWLYSGVPSRFSGSGSGTDFTLTISSLQPEDFATYYCQQYNKWPLTFGQGTKVEIKR :: 0.0288
antibody #7 (antibody, V domains shown, also called C07) VH: EVQLVESGGGLVQPGGSLRLSCAASGFTIEDRWIHWVRQAPGKGLEWVASIWPMEGLTRYADSVKGRFTISADTSKNTAYLQMNSLRAEDTAVYYCARGYYGFDYWGQGTLVTVSS VL: DIQMTQSPSSLSASVGDRVTITCRASQDVEARVAWYQQKPGKAPKLLIFTSTRLYSGVPSRFSGSGSGTDFTLTISSLQPEDFATYYCQQIMPLPTTFGQGTKVEIKR :: 0.018

Then there is this binder:
Specify EC50 for antibody #33 (antibody, V domains shown, also called D33; C33) VH: EVQLVESGGGLVQPGGSLRLSCAASGFTINNGGIHWVRQAPGKGLEWVAGIWPFWGSTSYADSVKGRFTISADTSKNTAYLQMNSLRAEDTAVYYCARGSYGFDYWGQGTLVTVSS VL: DIQMTQSPSSLSASVGDRVTITCRASQDVYSSVAWYQQKPGKAPKLLIFGSSFLYSGVPSRFSGSGSGTDFTLTISSLQPEDFATYYCQQYYDWPITFGQGTKVEIKR and stop. 0.0255
